# system.under.test: T1, Human ST2 (human, UniProt Q01638 19-328, limits assumed)
# T1 construct: also called human ST2 protein; Interleukin 1 receptor-like 1
# T1 sequence (looked up): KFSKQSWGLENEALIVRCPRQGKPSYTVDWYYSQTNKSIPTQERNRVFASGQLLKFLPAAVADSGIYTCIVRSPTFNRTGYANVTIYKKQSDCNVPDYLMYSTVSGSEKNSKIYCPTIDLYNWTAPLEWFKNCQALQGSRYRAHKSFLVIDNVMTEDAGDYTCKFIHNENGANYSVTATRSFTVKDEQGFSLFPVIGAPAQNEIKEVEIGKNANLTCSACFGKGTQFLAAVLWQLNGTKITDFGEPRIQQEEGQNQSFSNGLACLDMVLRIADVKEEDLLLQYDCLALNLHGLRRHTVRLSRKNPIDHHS
# assay.comment: SPR (Carterra), antibody immobilized, ST2 analyte
# key: entry, value: Kd
Value expressed in nM; do not type the unit.

Human ST2 IgG1 Antibody 30 (antibody, V domains shown, IgG1; also called ST2 Antibody 30) VH: QVQLVQSGAEVKKPGSSVKVSCKASGYTFTTYGITWVRQAPGQGLEWMGGIIPIFGTANYAQKFQGRVTITADESTSTAYMELSSLRSEDTAVYYCAKLSGSSGSWDYYYYYGMDVWGQGTLVTVSS VL: DIVMTQSPLSLPVTPGEPASISCRSSQSLLHSNGYNYLDWYLQKPGQSPQLLIYAASNLQSGVPDRFSGSGSGTDFTLKISRVEAEDVGVYYCMQALQTPITFGQSTRLEIKR; 155

Next up:
Reported Kd ( Human ST2 IgG1 Antibody 6 (antibody, V domains shown, IgG1; also called ST2 Antibody 6) VH: EVQLLESGGGLVKPGGSLRLSCAASGFTFSSYWMSWVRQAPGKGLEWVSAIGGSGAGTYYADSVKGRFTISLDDSKNTLYLQMNSLKTEDTAVYYCARLSTVTRGFDYWGQGTLVTVSS VL: DIQMTQSPSSLSASVGDRVTITCRASQSISNWLAWYQQKPGKAPKLLIYSASSLQNGVPSRFSGSGSGTDFTLTISSLQPEDFATYYCQQSYSTPPTFGQGTKVEIKR ) = 166
